- STUDY SYSTEM: CLK3 (Homo sapiens (Human))
- Sequence (P49761 whole entry): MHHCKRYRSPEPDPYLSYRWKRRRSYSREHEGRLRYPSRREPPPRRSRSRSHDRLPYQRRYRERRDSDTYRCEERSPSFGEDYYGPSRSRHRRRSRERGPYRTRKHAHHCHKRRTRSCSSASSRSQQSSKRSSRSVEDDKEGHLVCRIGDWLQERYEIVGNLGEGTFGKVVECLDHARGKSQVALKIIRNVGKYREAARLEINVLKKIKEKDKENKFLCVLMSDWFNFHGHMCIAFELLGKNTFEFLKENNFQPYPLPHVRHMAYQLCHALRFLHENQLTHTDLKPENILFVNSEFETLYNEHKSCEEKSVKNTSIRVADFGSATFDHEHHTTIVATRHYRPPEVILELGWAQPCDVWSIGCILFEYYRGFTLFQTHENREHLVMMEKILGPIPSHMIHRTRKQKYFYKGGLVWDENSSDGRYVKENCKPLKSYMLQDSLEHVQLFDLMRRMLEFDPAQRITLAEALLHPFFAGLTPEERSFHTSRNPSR
pIC50: −log10 of the molar value.
ASSAY READOUT: pIC50

CC(C)Oc1nn(CCO)c2c1/C=C/c1n[nH]c3cc(F)c(cc13)-c1cnn(C)c1O[C@H](C)CN(C(C)C)C2 | 6.36

I = Cc1nn(C)c2c1/C=C/c1n[nH]c3ccc(cc13)-c1cnn(C)c1COCCO2
II = CCOc1nn(C)c2c1/C=C/c1n[nH]c3ccc(cc13)-c1cnn(C)c1O[C@@H]1CCN(C2)C1
III = CCOc1nn(CCO)c2c1/C=C/c1n[nH]c3ccc(cc13)-c1cnn(C)c1OC[C@H](CC)N(C)C2
*Q* Order field: pIC50 | Direction: descending (largest first) Give me the labels in the order the question wants.
*A* I, II, III
(I: 6.75, II: 6.40, III: 6.00)

====

- STUDY SYSTEM: EGFR Δ746-750/C797S mutant (Homo sapiens (Human), UniProt P00533, C797S/DEL746-750)
- Sequence (P00533 other isoform, or with tags, fused parts or gaps C797S/del 1-668/del 746-750 limits assumed): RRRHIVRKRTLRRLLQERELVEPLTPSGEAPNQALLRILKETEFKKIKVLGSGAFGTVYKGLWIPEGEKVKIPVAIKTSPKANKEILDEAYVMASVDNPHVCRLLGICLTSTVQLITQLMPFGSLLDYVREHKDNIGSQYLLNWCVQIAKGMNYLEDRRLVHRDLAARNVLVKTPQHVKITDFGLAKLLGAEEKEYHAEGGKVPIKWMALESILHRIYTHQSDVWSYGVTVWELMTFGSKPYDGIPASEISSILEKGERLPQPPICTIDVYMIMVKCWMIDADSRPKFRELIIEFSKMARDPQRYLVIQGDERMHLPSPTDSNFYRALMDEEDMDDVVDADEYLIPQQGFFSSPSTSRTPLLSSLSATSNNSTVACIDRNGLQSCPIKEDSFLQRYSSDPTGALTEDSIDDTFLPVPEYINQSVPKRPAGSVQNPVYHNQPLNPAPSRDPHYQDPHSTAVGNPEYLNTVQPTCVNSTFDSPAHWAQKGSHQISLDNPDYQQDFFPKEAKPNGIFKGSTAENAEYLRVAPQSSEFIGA
- ASSAY REMARKS: HotSpot radiometric kinase assay, EGFR Δ746-750/C797S mutant
- Format: biochemical
- TEST SETTINGS: 10 μM ATP
pIC50: −log10 of the molar value.
ASSAY READOUT: pIC50

Cn1ncc2c1OCCN1CC[C@@H](Oc3ccccc3/C=C/c3n[nH]c4ccc-2cc34)C1=O [Example 70] | 7.57
CCc1noc2c1/C=C/c1n[nH]c3ccc(cc13)-c1cnn(C)c1O[C@@H](C)CN(C)C2 [Example 174] | 7.57

a = CSCn1ncc2c1O[C@@H](C)CN(C(C)C)Cc1c(c(C)nn1C)/C=C/c1n[nH]c3ccc-2cc13 [Example 164]
b = CCOc1nn(CCO)c2c1/C=C/c1n[nH]c3ccc(cc13)-c1cnn(C)c1O[C@@H]1CCCN(C2)C1 [Example 137]
*Q* Which record would sort first by descending pIC50, a or b ? // return label of chosen record
*A* b

====

- STUDY SYSTEM: EGFR L858R/T790M mutant (Homo sapiens (Human), UniProt P00533, L858R/T790M)
- Sequence (P00533 25-1210 T790M/L858R): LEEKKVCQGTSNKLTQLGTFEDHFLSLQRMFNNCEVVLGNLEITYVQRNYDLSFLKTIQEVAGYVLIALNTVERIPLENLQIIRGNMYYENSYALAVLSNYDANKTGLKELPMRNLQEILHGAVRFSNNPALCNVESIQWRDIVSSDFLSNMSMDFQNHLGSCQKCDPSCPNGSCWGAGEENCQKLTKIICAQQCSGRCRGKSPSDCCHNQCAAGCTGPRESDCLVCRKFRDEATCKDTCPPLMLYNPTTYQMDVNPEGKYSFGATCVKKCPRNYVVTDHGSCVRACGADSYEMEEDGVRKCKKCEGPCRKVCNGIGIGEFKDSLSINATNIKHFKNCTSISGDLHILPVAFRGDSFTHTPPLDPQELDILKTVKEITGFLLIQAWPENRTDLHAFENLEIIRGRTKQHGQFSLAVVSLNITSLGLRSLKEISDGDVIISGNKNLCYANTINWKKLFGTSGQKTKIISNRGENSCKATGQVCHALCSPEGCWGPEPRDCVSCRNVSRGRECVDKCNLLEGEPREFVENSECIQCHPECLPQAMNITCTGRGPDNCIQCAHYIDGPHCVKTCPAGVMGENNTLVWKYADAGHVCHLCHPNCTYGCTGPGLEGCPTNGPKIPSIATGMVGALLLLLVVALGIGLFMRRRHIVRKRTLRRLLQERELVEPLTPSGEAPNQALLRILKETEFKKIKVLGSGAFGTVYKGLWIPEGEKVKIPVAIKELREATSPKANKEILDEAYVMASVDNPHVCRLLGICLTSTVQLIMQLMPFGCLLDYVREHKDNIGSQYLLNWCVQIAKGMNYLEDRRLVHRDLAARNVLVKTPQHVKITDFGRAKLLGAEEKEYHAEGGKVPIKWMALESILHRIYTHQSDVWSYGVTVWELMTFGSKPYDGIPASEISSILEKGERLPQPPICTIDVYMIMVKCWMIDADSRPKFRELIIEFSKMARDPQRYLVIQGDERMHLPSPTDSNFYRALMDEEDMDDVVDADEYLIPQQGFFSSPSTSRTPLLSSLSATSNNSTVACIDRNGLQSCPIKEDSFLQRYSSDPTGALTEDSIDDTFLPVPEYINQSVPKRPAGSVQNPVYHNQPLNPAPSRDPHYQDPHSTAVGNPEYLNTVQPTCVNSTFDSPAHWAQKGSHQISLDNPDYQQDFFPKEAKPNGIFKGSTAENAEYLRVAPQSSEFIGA
- ASSAY REMARKS: HotSpot radiometric kinase assay, EGFR L858R/T790M mutant
- TEST SETTINGS: 10 μM ATP
ASSAY READOUT: IC50 (nM)

P = Cc1c2c(nn1CCN1CCOCC1)CN(C)C[C@H](C)Oc1c(cnn1C)-c1ccc3[nH]nc(c3c1)/C=C/2 [Example 93]
Q = Cc1nn(C)c2c1CN(C)C[C@H](C)Oc1c(cnn1C)-c1ccc3[nH]nc(c3c1)/C=C/2 [Example 130]
R = Cc1nn([C@H]2CC[C@@H]2O)c2c1/C=C/c1n[nH]c3ccc(cc13)-c1cnn(C)c1OCCCO2 (racemic) [Example 78]
S = CCOc1nn(CCO)c2c1/C=C/c1n[nH]c3cc(F)c(cc13)-c1cnn(C)c1O[C@@H](C)CN(C)C2 [Example 172]
*Q* Arrange the above in rising order of IC50. Give me the labels in the order the question wants.
*A* S, P, Q, R

I = Cc1nn(CCO)c2c1/C=C/c1n[nH]c3ccc(cc13)-c1cnn(C)c1CN(C)CCO2 [Example 56]
II = CN(C)Cc1ccc2c(c1)O[C@@H]1CCN(CCOc3c(cnn3C)-c3ccc4[nH]nc(c4c3)/C=C/2)C1=O [Example 94]
III = CCOc1nn([C@H](C)CO)c2c1/C=C/c1n[nH]c3ccc(cc13)-c1cnn(C)c1O[C@@H](C)CN(C)C2 [Example 171]
IV = CCOc1nn([C@@H](C)CO)c2c1/C=C/c1n[nH]c3cc(F)c(cc13)-c1cnn(C)c1O[C@@H](C)CN(C)C2 [Example 214]
*Q* Rank ascending by IC50. Give me the labels in the order the question wants.
*A* IV, III, II, I
(IV: 0.2 nM, III: 0.5 nM, II: 0.82 nM, I: 1.22 nM)

A = C[C@H]1CN(C)Cc2c(c(O)nn2CCO)/C=C/c2n[nH]c3ccc(cc23)-c2cnn(C)c2O1 [Example 186]
B = CCN1Cc2c(c(OC(C)C)nn2C[C@H](C)O)/C=C/c2n[nH]c3ccc(cc23)-c2cnn(C)c2O[C@H](C)C1 [Example 227]
*Q* Pick one, A or B : lowest reported IC50. // return label of chosen record
*A* B
(B: 0.84 nM, A: 1.48 nM)

I = CCOc1nn([C@@H](C)CO)c2c1/C=C/c1n[nH]c3cc(F)c(cc13)-c1cnn(C)c1OC[C@H](C)N(C(C)C)C2 [Example 228]
II = CCOc1nn(CCO)c2c1/C=C/c1n[nH]c3ccc(cc13)-c1cnn(C)c1O[C@@H](C)CN(CC)C2 [Example 177]
*Q* Which record would sort first by descending IC50, I or II ? // return label of chosen record
*A* I
(I: 25.9 nM, II: 0.6 nM)
